Source: paper PMC11036874

target: human D3R (Homo sapiens, UniProt P35462); experiment: β-arrestin recruitment assay for D3R; conditions: antagonist mode, vs 30 nM (EC80) dopamine, human D3R CHO-K1 cells
Sequence (P35462 whole entry): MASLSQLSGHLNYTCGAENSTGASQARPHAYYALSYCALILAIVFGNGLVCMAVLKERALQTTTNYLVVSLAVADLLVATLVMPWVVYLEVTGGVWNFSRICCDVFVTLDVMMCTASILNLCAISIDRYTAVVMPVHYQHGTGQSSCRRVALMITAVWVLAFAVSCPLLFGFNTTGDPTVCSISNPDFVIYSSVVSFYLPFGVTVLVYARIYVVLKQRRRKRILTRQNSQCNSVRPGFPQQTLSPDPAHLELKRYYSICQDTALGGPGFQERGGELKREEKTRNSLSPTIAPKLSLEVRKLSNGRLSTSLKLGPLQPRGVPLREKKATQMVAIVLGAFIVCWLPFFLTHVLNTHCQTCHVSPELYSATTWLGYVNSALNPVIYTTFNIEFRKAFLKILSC
measured property: IC50 (nM)
Please state the figure in nM; there is no need to write the unit.

Query: Fill in IC50 for record `CCN(CCCNC(=O)c1ccc(-c2ccncc2)cc1)CCNC(=O)c1cc(I)cc(OC)c1OC`
Result: 1.5

* * *

Protein target, amino acids: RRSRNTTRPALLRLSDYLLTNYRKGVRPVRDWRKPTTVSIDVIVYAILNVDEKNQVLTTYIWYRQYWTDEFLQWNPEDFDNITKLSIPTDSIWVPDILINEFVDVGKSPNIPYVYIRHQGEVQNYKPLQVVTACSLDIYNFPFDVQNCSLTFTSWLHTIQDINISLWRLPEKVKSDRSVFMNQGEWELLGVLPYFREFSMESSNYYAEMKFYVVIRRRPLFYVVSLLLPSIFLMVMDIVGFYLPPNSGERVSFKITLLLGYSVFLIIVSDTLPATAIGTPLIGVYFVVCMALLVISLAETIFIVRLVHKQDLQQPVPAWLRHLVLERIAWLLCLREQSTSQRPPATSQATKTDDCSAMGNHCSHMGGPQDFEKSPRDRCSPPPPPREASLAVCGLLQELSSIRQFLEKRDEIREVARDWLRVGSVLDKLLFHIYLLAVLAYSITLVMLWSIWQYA
measured property: Ki (nM)
Please state the figure in nM; there is no need to write the unit.

Query: Fill in Ki for record CCN(CCCNC(=O)c1ccc(-c2ccncc2)cc1)CCNC(=O)c1cc(I)cc(OC)c1OC [HY-3-24]
Result: 904
